EXPERIMENT_SUMMARY: In vitro microsomal stability, human liver microsomes
Type: in vitro ADME
CONDITIONS: remaining fraction after 30 min; 1 μM compound, 0.5 mg/mL human liver microsomes, 1 mM NADPH
yes if Rem. @ hLM (%) is below 80%. no if not; exact matches included in no.

[[record]]
compound = "C[C@H](c1ccc(C(F)(F)F)cc1C(F)(F)F)n1cc(NC(=O)c2nnc(-c3ccccn3)s2)cn1 [Compound 123]"
label_value = "no"

[[record]]
compound = "O=C(Nc1cnn(Cc2ccc(C(F)(F)F)cc2C(F)(F)F)c1)c1cc(-c2cnccn2)on1 [Compound 114]"
label_value = "no"

[[record]]
compound = "C[C@H](c1ccc(C(F)(F)F)cc1C(F)(F)F)n1cc(NC(=O)c2cc(-c3ncccn3)on2)cn1 [Compound 101]"
label_value = "yes"


Now examine the next entry.
hey, is Rem. @ hLM (%) for CC(c1ccc(C(F)(F)F)cc1C(F)(F)F)n1cc(NC(=O)c2cc(-c3ccco3)on2)cn1 (single isomer, unassigned) [“Enantiomer A” of Example S6] lower than 80% or not?
yes

---

TARGET: ATF6
EXPERIMENT_SUMMARY: ERSE ATF6-luciferase reporter assay (thapsigargin-induced ER stress)
Format: cell-based, human
CONDITIONS: dose-response 30 μM to 1 nM; thapsigargin-induced ER stress; U2-OS ATF6 luc reporter cells; read-out: IC50 ATF6-Luc reporter
RECORDED_ENDPOINT: IC50

# get_value(readout='IC50', item= O=C(Nc1cnn(Cc2ccc(C(F)(F)F)cc2C(F)(F)F)c1)c1cc(-c2ccco2)on1 [Ceapin-A7, reference compound] )
< 1 µM

---

Below, each entry is listed with its recorded Last time point for AUClast.
CONDITIONS: mouse, in vivo, po, 10 mg/kg
Field format: number, assumed h, no unit text.

[[record]]
molecule = "O=C(Nc1cnn(Cc2ccc(C(F)(F)F)cc2C(F)(F)F)c1)c1cc(-c2ccccn2)on1"
unit_descriptor = "h"
numeric_value = 24

[[record]]
molecule = "CC(c1ccc(C(F)(F)F)cc1C(F)(F)F)n1cc(NC(=O)c2cc(-c3ccccn3)on2)cn1 (single isomer, unassigned) [“Enantiomer A” of Example S5]"
unit_descriptor = "h"
numeric_value = 8


Consider the record given below.
# get_value(readout='Last time point for AUClast', item= C[C@H](c1ccc(C(F)(F)F)cc1C(F)(F)F)n1cc(NC(=O)c2cc(-c3ccccn3)no2)cn1 )
24

---

CONDITIONS: mouse, in vivo, po, 10 mg/kg
RECORDED_ENDPOINT: Last time point for AUClast (h)
Field format: number, assumed h, no unit text.

[[record]]
compound = "CC(c1ccc(C(F)(F)F)cc1C(F)(F)F)n1cc(NC(=O)c2cc(-c3ccco3)on2)cn1 (single isomer, unassigned) [“Enantiomer A” of Example S6]"
unit_descriptor = "h"
numeric_value = 8

[[record]]
compound = "O=C(Nc1cnn(Cc2ccc(C(F)(F)F)cc2C(F)(F)F)c1)c1cc(-c2cnccn2)on1"
unit_descriptor = "h"
numeric_value = 24

[[record]]
compound = "C[C@H](c1ccc(C(F)(F)F)cc1C(F)(F)F)n1cc(NC(=O)c2nnc(-c3ccccn3)s2)cn1"
unit_descriptor = "h"
numeric_value = 24


Consider the record given below.
# get_value(readout='Last time point for AUClast', item= C[C@H](c1ccc(C(F)(F)F)cc1C(F)(F)F)n1cc(NC(=O)c2cc(-c3cnccn3)on2)cn1 )
24

---

EXPERIMENT_SUMMARY: In vitro microsomal stability, human liver microsomes
Assay type: in vitro ADME
CONDITIONS: pH 7.4; intrinsic clearance; human liver microsomes; read-out: Clint @ hLM
Protocol: Compounds were incubated at a final concentration of 1 μM with 0.5 mg/mL human liver microsomes (hLM) (#HMMCPL; Thermo), mouse liver microsomes (mLM) (#MSMCPL; Thermo) or rat liver microsomes (rLM) (#RTMCPL; Thermo) and 1 mM reduced dihydronicotinamide-adenine dinucleotide phosphate (NADPH) (#N1630; Sigma) in 100 mM phosphate buffer (pH 7.4) at 37° C. The reactions were terminated at 0, 5, 15 and 30 min by the addition of cold acetonitrile containing 50 ng/mL propranolol as an internal standard. […]
RECORDED_ENDPOINT: microsomal CLint at […], 1 µM (µL/min/mg)
Field format: number, assumed µL/min/mg, no unit text.

[[record]]
compound = "C[C@H](c1ccc(C(F)(F)F)cc1C(F)(F)F)n1cc(NC(=O)c2cc(-c3ncccn3)on2)cn1"
unit_descriptor = "µL/min/mg"
numeric_value = 38.5

[[record]]
compound = "CC(c1ccc(C(F)(F)F)cc1C(F)(F)F)n1cc(NC(=O)c2cnc(-c3ccccn3)s2)cn1 (stereo not shown)"
unit_descriptor = "µL/min/mg"
numeric_value = 14.5


Consider the record given below.
# get_value(readout='microsomal CLint at […], 1 µM', item= Cc1nn([C@@H](C)c2ccc(C(F)(F)F)cc2C(F)(F)F)cc1NC(=O)c1cc(-c2ccccn2)on1 )
36.2

---

Below, each entry is listed with its recorded microsomal CLint at 1 μM.
EXPERIMENT_SUMMARY: In vitro microsomal stability, human liver microsomes
Assay type: in vitro ADME
CONDITIONS: pH 7.4; intrinsic clearance; human liver microsomes; read-out: Clint @ hLM
Field format: number, assumed µL/min/mg, no unit text.

Guide cases for microsomal CLint at 1 μM, answers given:
[[record]]
compound = "O=C(Nc1cnn(Cc2ccc(C(F)(F)F)cc2C(F)(F)F)c1)c1cc(-c2ncccn2)on1"
recorded_endpoint = "microsomal CLint at 1 μM"
numeric_value = 22

[[record]]
compound = "CC(c1ccc(C(F)(F)F)cc1C(F)(F)F)n1cc(NC(=O)c2cc(-c3ccco3)on2)cn1 (single isomer, unassigned) [“Enantiomer A” of Example S6]"
recorded_endpoint = "microsomal CLint at 1 μM"
numeric_value = 57.8

[[record]]
compound = "CCC(c1ccc(C(F)(F)F)cc1C(F)(F)F)n1cc(NC(=O)c2cc(-c3ccccn3)on2)cn1 (stereo not shown)"
recorded_endpoint = "microsomal CLint at 1 μM"
numeric_value = 20.5


Consider the record given below.
# get_value(readout='microsomal CLint at 1 μM', item= CC(c1ccc(C(F)(F)F)cc1C(F)(F)F)n1cc(NC(=O)c2cc(-c3ccccn3)on2)cn1 (single isomer, unassigned) [“Enantiomer A” of Example S5] )
13.9

---

System: ATF6
EXPERIMENT_SUMMARY: ERSE ATF6-luciferase reporter assay (thapsigargin-induced ER stress)
Assay type: cell-based, human
CONDITIONS: Homo sapiens, U2OS; 1 μM test compound; thapsigargin-induced ER stress; U2-OS ATF6 luc reporter cells; 8 hr; read-out: Inh. ATF6-Luc @ 1 μM [%]
Counter-ions that a name gives are not always drawn.
RECORDED_ENDPOINT: inhibition at 1 µM

Guide cases for inhibition at 1 µM, answers given:
[[record]]
compound = "CC(c1ccc(C(F)(F)F)cc1C(F)(F)F)n1cc(NC(=O)c2cc(-c3ccccn3)ccn2)cn1 (stereo not shown)"
result = "< 25%"

[[record]]
compound = "CC(c1ccc(C(F)(F)F)cc1C(F)(F)F)n1cc(NC(=O)c2nnc(-c3cnccn3)s2)cn1 (stereo not shown)"
result = "> 50%"

[[record]]
compound = "O=C(Nc1cnn(Cc2ccc(C(F)(F)F)cc2C(F)(F)F)c1)c1nc(-c2cccc(F)c2)no1 [Compound 4, formate]"
result = "< 25%"


# get_value(readout='inhibition at 1 µM', item= CC(c1ccc(C(F)(F)F)cc1C(F)(F)F)n1cc(NC(=O)c2cnc(-c3ccccn3)s2)cn1 (stereo not shown) )
< 25%

---

Below, each entry is listed with its recorded microsomal CLint at […], 1 µM.
EXPERIMENT_SUMMARY: In vitro microsomal stability, human liver microsomes
Type: in vitro ADME
CONDITIONS: pH 7.4; intrinsic clearance; human liver microsomes; read-out: Clint @ hLM
Field format: number, assumed µL/min/mg, no unit text.

# get_value(readout='microsomal CLint at […], 1 µM', item= Cc1nn([C@H](C)c2ccc(C(F)(F)F)cc2C(F)(F)F)cc1NC(=O)c1cc(-c2ccccn2)on1 )
39.2

# get_value(readout='microsomal CLint at […], 1 µM', item= C[C@H](c1ccc(C(F)(F)F)cc1C(F)(F)F)n1cc(NC(=O)c2cnc(-c3ccccn3)s2)cn1 )
18.9

# get_value(readout='microsomal CLint at […], 1 µM', item= C[C@H](c1ccc(C(F)(F)F)cc1C(F)(F)F)n1cc(NC(=O)c2nnc(-c3ccccn3)s2)cn1 )
3

# get_value(readout='microsomal CLint at […], 1 µM', item= O=C(Nc1cnn(Cc2ccc(C(F)(F)F)cc2C(F)(F)F)c1)c1cc(-c2ccccn2)on1 )
21

# get_value(readout='microsomal CLint at […], 1 µM', item= CC(c1ccc(C(F)(F)F)cc1C(F)(F)F)n1cc(NC(=O)c2cc(-c3ccco3)on2)cn1 (stereo not drawn) )
46
